Where do the numbers come from? From PubChem BioAssay AID1963833.

- Tested on: 883617-216-R-J1-PDC complex spheroid viability;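 also: spheroids exposed to compounds for seven days before readout; 100% = DMSO vehicle control viability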
- Assay comment: Anticancer human tumor 883617-216-R-J1-PDC patient-derived bladder carcinoma cell line growth inhibition [POLQ]
- Condition set: second compound 0.1 µM; first compound 0.0316 µM; active compounds read low
Reported viability, T/C values for a set of molecules
Give the quantity in %, number only.

>  <Molecule>
C#Cc1c(F)ccc2cc(O)cc(-c3ncc4c(N5CC6CCC(C5)N6)nc(OCC56CCCN5CC(F)C6)nc4c3F)c12 (stereo not given) + COC1C(OC(N)=O)C(O)C(Oc2ccc3c(O)c(NC(=O)c4ccc(O)c(CC=C(C)C)c4)c(=O)oc3c2C)OC1(C)C

>  <Target or test system>
883617-216-R-J1-PDC complex spheroid viability;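 also: spheroids exposed to compounds for seven days before readout; 100% = DMSO vehicle control viability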

>  <Value kind>
viability, T/C

>  <Measure unit>
%

>  <Endpoint value>
121

$$$$

[ask] Request the reported viability, T/C associated with CNCc1ccc(-c2[nH]c3cc(F)cc4c3c2CCNC4=O)cc1 + COC1C(OC(N)=O)C(O)C(Oc2ccc3c(O)c(NC(=O)c4ccc(O)c(CC=C(C)C)c4)c(=O)oc3c2C)OC1(C)C
[reply] 107

[ask] Further, for CNCc1ccc(-c2[nH]c3cc(F)cc4c3c2CCNC4=O)cc1 + Nc1ccc(C#CCN(C(=O)Cc2ncc(C(F)(F)F)cc2C(F)(F)F)c2ccc(F)cc2)nn1 ?
[reply] 96.9

[ask] Further, for C=CCn1c(=O)c2cnc(Nc3ccc(N4CCN(C)CC4)cc3)nc2n1-c1cccc(C(C)(C)O)n1 + Nc1ccc(C#CCN(C(=O)Cc2ncc(C(F)(F)F)cc2C(F)(F)F)c2ccc(F)cc2)nn1 ?
[reply] 95.8
